target under test: CYP2C9 (Homo sapiens, UniProt P11712)
Construct: 0.1 mg/mL protein human liver microsomes (BD Gentest); tissue BD Gentest; host or cells: human liver microsomes
Sequence (P11712 whole entry): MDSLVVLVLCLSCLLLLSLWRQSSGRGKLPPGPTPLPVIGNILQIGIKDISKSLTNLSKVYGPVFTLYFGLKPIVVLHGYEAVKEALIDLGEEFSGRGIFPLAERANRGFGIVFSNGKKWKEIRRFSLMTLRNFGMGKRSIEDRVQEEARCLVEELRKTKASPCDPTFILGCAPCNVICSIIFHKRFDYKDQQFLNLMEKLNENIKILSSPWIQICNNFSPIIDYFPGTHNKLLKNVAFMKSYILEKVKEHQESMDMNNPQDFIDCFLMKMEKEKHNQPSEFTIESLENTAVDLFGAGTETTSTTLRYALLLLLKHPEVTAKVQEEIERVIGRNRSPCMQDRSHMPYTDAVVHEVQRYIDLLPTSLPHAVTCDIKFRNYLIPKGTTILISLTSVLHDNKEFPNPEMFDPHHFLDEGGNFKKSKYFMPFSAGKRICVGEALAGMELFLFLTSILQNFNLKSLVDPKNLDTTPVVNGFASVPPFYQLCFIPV
assay overview: Cocktail assay for CYPs, diclofenac 4′-hydroxylation (CYP2C9), human liver microsomes
Assay type: biochemical
setup conditions: 5 μM diclofenac, 0.1 mg/mL human liver microsomes, 10 min at 37° C.; read-out: CYP IC50 (nM) 2C9
measured quantity: IC50 (nM)

Study these solved cases before continuing.
compound	IC50 [nM]
CC(=O)Nc1ncc(S(=O)(=O)N2Cc3cccc(-c4cncn4CCc4ccc(F)cc4)c3C2)s1 [Compound 15]	1230
CS(=O)(=O)N1CCCC1c1cccc(-c2cncn2CCc2ccc(F)cc2)c1 (centres unmarked) [Compound 51]	4640
COCCN(C)c1ccc(S(=O)(=O)N2CCc3c(cccc3-c3cncn3CCc3ccc(F)cc3)C2)cn1 [Compound 62]	575
CC(=O)Nc1ncc(S(=O)(=O)NCc2cccc(-c3cncn3CCc3ccc(F)cc3)c2)s1 [Compound 13]	65

(a) O=S(=O)(c1ccc(N2CCOCC2)nc1)N1CCCC1c1ccccc1-c1cncn1CCc1ccc(F)cc1 (centres unmarked) [Compound 29]
(b) O=C(c1cccnc1)N1CCCC1c1cccc(-c2cncn2CCc2ccc(F)cc2)c1 (single isomer, unassigned) [Compound 48b]
Prompt: Of the two listed items, a and b , which carries the larger IC50 figure? Please indicate the selected item by its label.
Response: b

----------
target under test: CYP2D6 (Homo sapiens)
Construct: 0.1 mg/mL protein human liver microsomes (BD Gentest); tissue BD Gentest; host or cells: human liver microsomes
Sequence (P10635 whole entry): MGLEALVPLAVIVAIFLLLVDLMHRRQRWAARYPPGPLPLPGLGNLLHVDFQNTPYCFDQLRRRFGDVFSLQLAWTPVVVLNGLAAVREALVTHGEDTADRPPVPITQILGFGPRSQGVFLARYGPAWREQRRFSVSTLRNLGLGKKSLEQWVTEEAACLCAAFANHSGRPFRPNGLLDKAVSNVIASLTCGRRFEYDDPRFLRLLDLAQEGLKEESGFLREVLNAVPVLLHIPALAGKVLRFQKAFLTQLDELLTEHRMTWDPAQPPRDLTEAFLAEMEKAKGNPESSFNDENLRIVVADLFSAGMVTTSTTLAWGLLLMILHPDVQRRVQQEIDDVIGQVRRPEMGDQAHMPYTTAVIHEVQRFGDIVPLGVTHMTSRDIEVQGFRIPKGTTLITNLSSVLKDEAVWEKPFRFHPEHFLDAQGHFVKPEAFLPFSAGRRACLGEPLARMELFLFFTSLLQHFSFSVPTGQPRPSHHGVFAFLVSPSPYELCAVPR
assay overview: Cocktail assay for CYPs, dextromethorphan O-demethylation (CYP2D6), human liver microsomes
Type: biochemical
setup conditions: 5 μM dextromethorphan, 0.1 mg/mL human liver microsomes, 10 min at 37° C.; read-out: CYP IC50 (nM) 2D6
measured quantity: IC50 (nM)

compound	IC50 (nM)
O=C(c1cccnc1)N1CCCC1c1ccccc1-c1cncn1CCc1ccc(F)cc1 (single isomer, unassigned) [Compound 42a]	1830
O=S(=O)(c1ccc(NCC(O)C2CC2)nc1)N1CCCC1c1ccccc1-c1cncn1CCc1ccc(F)cc1 (single isomer, unassigned) [Compound 34b]	2420
CC(=O)Nc1ncc(S(=O)(=O)NCc2ccc(-c3cncn3CCc3ccc(F)cc3)cn2)s1	8390
O=S(=O)(c1ccc(N2CCC(O)CC2)nc1)N1CCCC1c1cccc(-c2cncn2CCc2ccc(F)cc2)c1 (single isomer, unassigned) [Compound 57a]	2200
C[C@@H](NS(=O)(=O)c1cnc(N2CCN3C[C@H](O)C[C@H]3C2)s1)c1ccccc1-c1cncn1CCc1ccc(F)cc1	2540

(A) O=S(=O)(c1cnc(Cl)c(Br)c1)N1CCCC1c1cccc(-c2cncn2CCc2ccc(F)cc2)c1 (centres unmarked)
(B) CN1CCN(c2ncc(S(=O)(=O)N3CCCC3c3ccc(-c4cncn4CCc4ccc(F)cc4)cc3)s2)CC1 (centres unmarked)
(C) CC(C)OC(=O)N1CCCC1c1ccccc1-c1cncn1CCc1ccc(F)cc1 (single isomer, unassigned) [Compound 39a]
(D) C[C@H](c1ccc(F)cc1)n1cncc1-c1cccc2c1CCN(S(=O)(=O)c1cnc(N3CCN4C[C@H](O)C[C@H]4C3)s1)C2
Prompt: Order field: IC50 | Direction: descending (largest first) Show the ranking through the labels, in the order asked for.
Response: C, D, B, A

(1) O=S(=O)(NCCc1ccccc1-c1cncn1CCc1ccc(F)cc1)c1cccnc1
(2) O=C(C1CC1)N1CCCC1c1cccc(-c2cncn2CCc2ccc(F)cc2)c1 (centres unmarked)
Prompt: Compare the recorded IC50 of 1 and 2 ; state which is larger. Please reply using the label of the selected record.
Response: 2

----------
target under test: CYP3A4 (Homo sapiens)
assay overview: IC50 vs CYP3A by inhibition of lopinavir metabolism in human liver microsomes
Assay type: biochemical
Parameters: 0.01 mg/mL protein human liver microsomes (BD Gentest); tissue BD Gentest; host or cells: human liver microsomes
setup conditions: 1.5 μM lopinavir, 0.01 mg/mL human liver microsomes, 8 min at 37° C.; read-out: CYP IC50 (nM) 3A4 (LPV)
Sequence (P08684 2-503): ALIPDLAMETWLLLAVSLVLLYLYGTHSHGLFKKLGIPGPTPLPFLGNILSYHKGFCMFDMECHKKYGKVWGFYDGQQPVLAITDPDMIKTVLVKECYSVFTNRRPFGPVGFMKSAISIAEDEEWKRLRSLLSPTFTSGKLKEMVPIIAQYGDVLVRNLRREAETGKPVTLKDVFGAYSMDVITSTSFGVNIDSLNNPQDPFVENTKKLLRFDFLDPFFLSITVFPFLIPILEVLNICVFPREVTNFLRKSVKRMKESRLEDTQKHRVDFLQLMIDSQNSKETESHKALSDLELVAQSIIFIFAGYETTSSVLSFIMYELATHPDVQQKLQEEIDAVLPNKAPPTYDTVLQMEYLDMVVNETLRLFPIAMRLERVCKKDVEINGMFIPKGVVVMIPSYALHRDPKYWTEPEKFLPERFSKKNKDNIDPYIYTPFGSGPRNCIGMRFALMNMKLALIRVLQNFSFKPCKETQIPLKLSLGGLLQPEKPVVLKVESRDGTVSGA
measured quantity: IC50 (nM)

Consider the reported IC50 for these compounds:
compound	IC50 (nM)
CC(=O)Nc1ncc(S(=O)(=O)NCc2cccc(-c3cncn3CCc3ccc(F)cc3)c2)s1	5.3
O=S(=O)(c1ccc(N2CCC(O)CC2)nc1)N1CCCC1c1ccccc1-c1cncn1CCc1ccc(F)cc1 (single isomer, unassigned) [Compound 32]	0.7

(A) O=S(=O)(c1ccc(N2CCC(O)CC2)nc1)N1CCCC1c1cccc(-c2cncn2CCc2ccc(F)cc2)c1 (single isomer, unassigned) [Compound 57a]
(B) CN1CCN(c2ncc(S(=O)(=O)N3CCc4c(-c5cncn5CCc5ccc(F)cc5)ccnc4C3)s2)CC1
Prompt: Sorting ascending by IC50, which comes first: A or B ? Mark your answer with the label of the selected entry.
Response: A

----------
target under test: UniProtKB P08684
assay overview: Cocktail assay for CYPs, midazolam 1′-hydroxylation (CYP3A4), human liver microsomes
Format: biochemical
Design: 0.1 mg/mL protein human liver microsomes (BD Gentest); tissue BD Gentest; host or cells: human liver microsomes
setup conditions: 2 μM midazolam, 0.1 mg/mL human liver microsomes, 10 min at 37° C.; read-out: CYP IC50 (nM) 3A4 (MDZ)
Sequence (P08684 whole entry): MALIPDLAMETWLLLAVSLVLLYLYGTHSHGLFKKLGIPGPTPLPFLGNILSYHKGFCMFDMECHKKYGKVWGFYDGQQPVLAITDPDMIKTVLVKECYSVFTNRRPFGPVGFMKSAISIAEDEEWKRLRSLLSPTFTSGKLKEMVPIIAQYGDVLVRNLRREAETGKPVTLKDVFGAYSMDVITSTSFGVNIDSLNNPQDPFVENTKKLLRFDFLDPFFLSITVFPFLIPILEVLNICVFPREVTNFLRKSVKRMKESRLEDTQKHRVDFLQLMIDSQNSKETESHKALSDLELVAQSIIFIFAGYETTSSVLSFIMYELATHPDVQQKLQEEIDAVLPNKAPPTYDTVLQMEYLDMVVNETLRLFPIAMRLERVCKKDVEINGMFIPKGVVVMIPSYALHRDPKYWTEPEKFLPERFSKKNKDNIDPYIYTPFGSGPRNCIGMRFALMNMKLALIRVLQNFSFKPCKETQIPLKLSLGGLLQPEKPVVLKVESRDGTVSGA
measured quantity: IC50 (nM)

(1) O=S(=O)(c1ccc2c(c1)OCO2)N1CCCC1c1ccccc1-c1cncn1CCc1ccc(F)cc1 (centres unmarked)
(2) CC(C)OC(=O)N1CCCC1c1ccccc1-c1cncn1CCc1ccc(F)cc1 (single isomer, unassigned) [Compound 39b]
Prompt: Which record would sort first by descending IC50, 1 or 2 ? Reply with the label of the item you choose.
Response: 2
(2: 34.5 nM, 1: 3.8 nM)

(a) O=S(=O)(c1ccc(NCC(O)C2CC2)nc1)N1CCCC1c1ccccc1-c1cncn1CCc1ccc(F)cc1 (single isomer, unassigned) [Compound 34b]
(b) O=C(C1CCOCC1)N1CCCC1c1cccc(-c2cncn2CCc2ccc(F)cc2)c1 (single isomer, unassigned) [Compound 49a]
(c) CN(C)c1ccc(S(=O)(=O)N2CCCC2c2ccccc2-c2cncn2CCc2ccc(F)cc2)cn1 (single isomer, unassigned) [Compound 28b]
(d) O=S(=O)(c1cnc(N2CCN3C[C@H](O)C[C@H]3C2)s1)N1CCc2cccc(-c3cncn3CCc3ccc(F)cc3)c2C1
Prompt: Hi! Can you put these in order of IC50, lowest number first? Reply with the labels, ordered as the question asks.
Response: a, c, d, b
(a: 5.5 nM, c: 11.8 nM, d: 18.5 nM, b: 30.1 nM)

(1) O=C(c1ccc(N2CCOCC2)nc1)N1CCCC1c1ccccc1-c1cncn1CCc1ccc(F)cc1 (single isomer, unassigned) [Compound 43b]
(2) O=S(=O)(c1ccc(NCC(O)C2CC2)nc1)N1CCCC1c1ccccc1-c1cncn1CCc1ccc(F)cc1 (single isomer, unassigned) [Compound 34a]
(3) O=C(C1CC1)N1CCCC1c1cccc(-c2cncn2CCc2ccc(F)cc2)c1 (centres unmarked)
(4) CC(C)NC(=O)N1CCCC1c1ccccc1-c1cncn1CCc1ccc(F)cc1 (single isomer, unassigned) [Compound 46a]
(5) COc1ccc(OC)c(S(=O)(=O)N2CCCC2c2ccccc2-c2cncn2CCc2ccc(F)cc2)c1 (centres unmarked)
Prompt: Let's sort these by IC50, smallest first. Go ahead? Thanks in advance for listing the labels in the requested order.
Response: 1, 2, 3, 5, 4

(1) CC(=O)Nc1ncc(S(=O)(=O)N2Cc3cccc(-c4cncn4CCc4ccc(F)cc4)c3C2)s1
(2) CC(=O)Nc1ncc(S(=O)(=O)N2CCCC2c2ccccc2-c2cncn2CCc2ccc(F)cc2)s1 (centres unmarked)
Prompt: Param pair: 1 , 2 . Output: the one whose IC50 is numerically greater. Respond with the label that goes with your answer.
Response: 2

----------
target under test: CYP1A2 (Homo sapiens)
Construct: 0.1 mg/mL protein human liver microsomes (BD Gentest); tissue BD Gentest; host or cells: human liver microsomes
Sequence (P05177 whole entry): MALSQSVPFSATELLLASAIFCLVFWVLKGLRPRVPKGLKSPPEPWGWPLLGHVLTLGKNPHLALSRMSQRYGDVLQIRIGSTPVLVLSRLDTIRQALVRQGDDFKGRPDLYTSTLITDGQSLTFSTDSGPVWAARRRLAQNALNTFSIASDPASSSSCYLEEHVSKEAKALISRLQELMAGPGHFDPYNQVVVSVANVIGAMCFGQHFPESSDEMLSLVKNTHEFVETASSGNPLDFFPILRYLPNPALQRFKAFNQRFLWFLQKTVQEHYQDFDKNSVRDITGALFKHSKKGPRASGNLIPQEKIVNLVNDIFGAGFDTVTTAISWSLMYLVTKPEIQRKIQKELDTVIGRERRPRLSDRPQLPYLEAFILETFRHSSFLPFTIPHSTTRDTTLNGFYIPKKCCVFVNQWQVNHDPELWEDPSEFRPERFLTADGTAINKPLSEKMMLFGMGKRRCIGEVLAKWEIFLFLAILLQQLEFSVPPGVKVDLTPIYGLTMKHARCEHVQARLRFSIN
assay overview: Cocktail assay for CYPs, phenacetin O-deethylation (CYP1A2), human liver microsomes
Type: biochemical
setup conditions: 10 μM phenacetin, 0.1 mg/mL human liver microsomes, 10 min at 37° C.; read-out: CYP IC50 (nM) 1A2
Protocol: Determination of IC50 in a Cocktail Assay for CYPs 1A2, 2C9, 2C19, 2D6 and 3A4: This assay was performed in a standard 96-well plate design. […] The production of the metabolite of each probe substrate was determined after incubation for 10 min at 37° C. Quantitation of the metabolite peak area ratio against an internal standard (tolbutamide) was determined by LC/MS/MS analysis following acetonitrile treatment of the incubations. […]
measured quantity: IC50

compound	measured quantity	result
O=S(=O)(c1ccc(N2CCC(O)CC2)nc1)N1CCCC1c1ccccc1-c1cncn1CCc1ccc(F)cc1 (single isomer, unassigned) [Compound 33]	IC50	> 10000 nM

Prompt: Quick one: give measured IC50 for CN(C)c1ccc(S(=O)(=O)N2CCCC2c2ccccc2-c2cncn2CCc2ccc(F)cc2)cn1 (single isomer, unassigned) [Compound 28a]
Response: > 10000 nM

Prompt: Report IC50 for O=S(=O)(NCc1ccccc1-c1cncn1CCc1ccc(F)cc1)c1cnc(N2CCN3C[C@H](O)C[C@H]3C2)s1 [Compound 19]
Response: > 10000 nM
